- TARGET UNDER TEST: Lysosomal protective protein (Homo sapiens)
- Sequence (whole entry): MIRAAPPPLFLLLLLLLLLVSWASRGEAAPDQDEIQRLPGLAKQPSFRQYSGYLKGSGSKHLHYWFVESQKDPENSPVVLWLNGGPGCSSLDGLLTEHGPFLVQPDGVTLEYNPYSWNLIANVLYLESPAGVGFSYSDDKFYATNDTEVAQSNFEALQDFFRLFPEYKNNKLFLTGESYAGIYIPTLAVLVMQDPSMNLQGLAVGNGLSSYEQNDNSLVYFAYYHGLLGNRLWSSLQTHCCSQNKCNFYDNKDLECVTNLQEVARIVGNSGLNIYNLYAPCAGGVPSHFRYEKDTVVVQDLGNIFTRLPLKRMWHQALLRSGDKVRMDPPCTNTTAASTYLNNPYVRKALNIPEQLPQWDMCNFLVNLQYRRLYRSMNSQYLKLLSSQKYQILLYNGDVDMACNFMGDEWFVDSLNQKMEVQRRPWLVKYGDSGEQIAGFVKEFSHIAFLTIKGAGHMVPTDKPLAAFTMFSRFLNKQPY
- METHOD NOTES: Substrate activity at cathepsin A (unknown origin) at 30 uM after 30 mins
MEASURED ATTRIBUTE: Activity (pmol/min/mg)
The reply should be a number in pmol/min/mg, with the unit left off.

{"COMPOUND": "CC(C)OC(=O)[C@H](C)N[P@](=O)(CO[C@H](C)Cn1cnc2c(N)ncnc21)Oc1ccccc1.CC(C)OC(=O)[C@H](C)N[P@](=O)(CO[C@H](C)Cn1cnc2c(N)ncnc21)Oc1ccccc1.O=C(O)/C=C/C(=O)O [TENOFOVIR ALAFENAMIDE FUMARATE]", "TARGET UNDER TEST": "Lysosomal protective protein (Homo sapiens)", "DISPLAY UNIT": "pmol/min/mg", "EXPERIMENTAL VALUE": 25.8}
{"COMPOUND": "CC(C)OC(=O)[C@H](C)N[P@@](=O)(CO[C@H](C)Cn1cnc2c(N)ncnc21)Oc1ccc(C[C@H](NC(=O)OCc2ccccc2)C(=O)CC2CCCC2)cc1", "TARGET UNDER TEST": "Lysosomal protective protein (Homo sapiens)", "DISPLAY UNIT": "pmol/min/mg", "EXPERIMENTAL VALUE": 30.3}
{"COMPOUND": "CC(C)OC(=O)[C@H](C)N[P@@](=O)(CO[C@H](C)Cn1cnc2c(N)ncnc21)Oc1ccc(C[C@H](NCCCc2ccccc2)C(=O)CC2CCCC2)cc1", "TARGET UNDER TEST": "Lysosomal protective protein (Homo sapiens)", "DISPLAY UNIT": "pmol/min/mg", "EXPERIMENTAL VALUE": 10.2}
{"COMPOUND": "CC(C)OC(=O)[C@H](C)N[P@](=O)(CO[C@H](C)Cn1cnc2c(N)ncnc21)Oc1ccc(C[C@H](NC(=O)CCc2ccccc2)C(=O)OC2CCCC2)cc1", "TARGET UNDER TEST": "Lysosomal protective protein (Homo sapiens)", "DISPLAY UNIT": "pmol/min/mg", "EXPERIMENTAL VALUE": 26}
{"COMPOUND": "CC(C)OC(=O)[C@H](C)N[P@](=O)(CO[C@H](C)Cn1cnc2c(N)ncnc21)Oc1ccc(C[C@H](NC(=O)OCc2ccccc2)C(=O)OC2CCCC2)cc1", "TARGET UNDER TEST": "Lysosomal protective protein (Homo sapiens)", "DISPLAY UNIT": "pmol/min/mg", "EXPERIMENTAL VALUE": 33.6}

Entry `CC(C)OC(=O)[C@H](C)N[P@@](=O)(CO[C@H](C)Cn1cnc2c(N)ncnc21)Oc1ccc(C[C@H](NC(=O)CCc2ccccc2)C(=O)OC2CCCC2)cc1` : reported Activity = ? 29.5

For `CC(C)OC(=O)[C@H](C)N[P@](=O)(CO[C@H](C)Cn1cnc2c(N)ncnc21)Oc1ccc(C[C@H](NCCCc2ccccc2)C(=O)CC2CCCC2)cc1` , what is its reported Activity? 16.3

Give the measured Activity of `CC(C)OC(=O)[C@H](C)N[P@](=O)(CO[C@H](C)Cn1cnc2c(N)ncnc21)Oc1ccc(C[C@H](NC(=O)OCc2ccccc2)C(=O)CC2CCCC2)cc1` . 39.7

What does the record list as Activity for `CC(C)OC(=O)[C@H](C)N[P@@](=O)(CO[C@H](C)Cn1cnc2c(N)ncnc21)Oc1ccc(C[C@H](NC(=O)OCc2ccccc2)C(=O)OC2CCCC2)cc1` ? 35.9
